- protocol summary: yeast display, Sf9 membrane polyspecificity reagent, FACS + sequencing; frameworks hold sequencing errors
property: polyreactivity (PSR sort gate)

| sequence chain | property | result |
| --- | --- | --- |
| QVQLVESGGGLVQAGGSLRLSCAASGSTFGAYAMGWSRQAPGKERELVAAISKRGGSTYYADSVKGRFTISRDNAKNTVYLQMNSLKPEDTAVYYCATDHFSPTYGYWGQGTQVTVSS | polyreactivity (PSR sort gate) | low polyreactivity |
| QAELVESGGGLVQAGGSLRLSCAASGLTFRAYAMGWYRQAPGKERELVAAISWNGGSTYYADSVKGRFTISRDNAKNTVYLQMNSLKPEDTAVYYCNAYDYQYFYGYEYDYWGQGTQVTVSS | polyreactivity (PSR sort gate) | high polyreactivity |
| QVQLVESGGGLVQAGGSLRLSCAASGFTSPTAMGWYRQAPGKVRELVADISVGDGSTYYADSVKGRFTISRDNAKNTVYLQMNSLKREDTAVYYCAAEYWLYWYQDGFGFDYWGQGTQVTVSS | polyreactivity (PSR sort gate) | high polyreactivity |
| QVQLVESGGGLVQAGGSLRLSCAASGSIFNQYAMGWYRQAPGKERELVARIRGSTGTTYYADSVKGRFTISRDNAKNTVYLQMNSLKPEDTAVYYCNAARYQGRSRFDYWGQGTQVTVSS | polyreactivity (PSR sort gate) | high polyreactivity |
| QVQLVESGGGLVQAGGSLRLSCAASGRTFVVNAMGWYSPAPGKEREFVAGISVRGGITYYADSVKGRFTISRDNAKNTVYLQMNSLKPEDTAVYYCAAYILDYGGDQRIFDYWGQGTQVTVSS | polyreactivity (PSR sort gate) | low polyreactivity |
